Measured values drawn from patent US8029764B2 for this set.

Tested on: colorectal tissue transcripts
Assay: SAGE of normal, adenoma and cancer colorectal tissue (transcript tag counts)
Parameters: species or system human
Details: adenoma library 2
Protocol: In an effort to identify potential molecular markers of early colorectal tumors, we have here analyzed gene expression in benign and malignant colorectal tumors in an unbiased and comprehensive fashion. […] The abundance of each tag provides a quantitative measure of the transcript level present within the mRNA population studied. […] For the current study, SAGE libraries derived from two samples of normal colonic epithelium, two colorectal adenomas, and two colorectal cancers were analyzed. […]
# AD2 (SAGE tag count) >= 2 gives satisfied, anything below gives not satisfied

// known answers, use as guide
• TGAGTGACAG (chemistry not fully specified) = satisfied
• TTGGACCTGG (chemistry not fully specified) = satisfied
• TGGGGAGAGG (chemistry not fully specified) = satisfied

Does the reported AD2 (SAGE tag count) for TTTTCTGCAT (chemistry not fully specified) fall at or above the 2 mark?
not satisfied

Does the reported AD2 (SAGE tag count) for TCTGAATTAT (chemistry not fully specified) fall at or above the 2 mark?
not satisfied

---

Known CA2 (SAGE tag count) of a selection of sequences
System: colorectal tissue transcripts
Test: SAGE of normal, adenoma and cancer colorectal tissue (transcript tag counts)
Set-up: species or system human
Conditions: SAGE library CA2
Reply with just the number.

- GATATGTAAA (chemistry not fully specified): 0
- ACTCTTGTTG (chemistry not fully specified): 0
- GCCGGGTGGG (chemistry not fully specified): 67
- CCTCCAGCTA (chemistry not fully specified): 147
- GATGAATCCG (chemistry not fully specified): 2
- GCACCCTTTC (chemistry not fully specified): 0
- GGCACCGTGC (chemistry not fully specified): 4
- GGGCGCTGTG (chemistry not fully specified): 5
- GCTGGCACAT (chemistry not fully specified): 0
- ATGTGCGTGG (chemistry not fully specified): 7

// CA2 (SAGE tag count) value for CCTGGAAGAG (chemistry not fully specified) : 16

// CA2 (SAGE tag count) value for GGAACAGGGG (chemistry not fully specified) : 2

// CA2 (SAGE tag count) value for GCTGCCCTTG (chemistry not fully specified) : 18

// CA2 (SAGE tag count) value for CCAAAGCTAT (chemistry not fully specified) : 11

// CA2 (SAGE tag count) value for GCAGGGCCTC (chemistry not fully specified) : 51

// CA2 (SAGE tag count) value for AGGATGGTCC (chemistry not fully specified; the letters are possibly those of the target site) : 8

// CA2 (SAGE tag count) value for AGCCCGACCA (chemistry not fully specified) : 3

// CA2 (SAGE tag count) value for CCCCCGCGGA (chemistry not fully specified) : 12

---

Tested on: colorectal tissue transcripts
Assay: SAGE of normal, adenoma and cancer colorectal tissue (transcript tag counts)
Set-up: species or system human
Conditions: SAGE library AD2
Known AD2 (SAGE tag count) of a selection of sequences

Please review the following examples before continuing.
* CTTCTTGCCC (chemistry not fully specified) | 2
* CTTGATTCCC (chemistry not fully specified) | 0
* CCAACACCAG (chemistry not fully specified) | 0
* CTGTGTGGCT (chemistry not fully specified; the letters are possibly those of the target site) | 0
* CCAGGGGAGA (chemistry not fully specified) | 22
* ACCCAACTGC (chemistry not fully specified) | 0

// AD2 (SAGE tag count) value for ACCCACGTCA (chemistry not fully specified) : 5

// AD2 (SAGE tag count) value for GCCCACACAG (chemistry not fully specified) : 1

// AD2 (SAGE tag count) value for GGAGGCCGAG (chemistry not fully specified) : 0

// AD2 (SAGE tag count) value for CCCCCTGCAT (chemistry not fully specified) : 0

---

Known NC1 (SAGE tag count) of a selection of sequences
Tested on: colorectal tissue transcripts
Assay: SAGE of normal, adenoma and cancer colorectal tissue (transcript tag counts)
Design: species or system human
Conditions: SAGE library NC1
Reply with just the number.

* ATTGGAGTGC (chemistry not fully specified) | 136
* CTTACAAGCA (chemistry not fully specified) | 21
* CCTGTCTGCC (chemistry not fully specified) | 14
* GTGGCGGGAA (chemistry not fully specified) | 3
* CTCAGAACTT (chemistry not fully specified) | 18
* GGGACGAGTG (chemistry not fully specified) | 20
* ATGATGGCAC (chemistry not fully specified; the letters are possibly those of the target site) | 12
* GCAAGAAAGT (chemistry not fully specified) | 48

// NC1 (SAGE tag count) value for AAGGTAGCAG (chemistry not fully specified) : 15

// NC1 (SAGE tag count) value for GGCACCGTGC (chemistry not fully specified) : 22

---

Test system: colorectal tissue transcripts
Test: SAGE of normal, adenoma and cancer colorectal tissue (transcript tag counts)
Set-up: species or system human
Conditions: SAGE library AD2
Known AD2 (SAGE tag count) of a selection of sequences
Reply with just the number.

Please review the following examples before continuing.
* CAGTGCGTTC (chemistry not fully specified) | 0
* CCTTCAAATC (chemistry not fully specified) | 0
* GTGCACTGAG (chemistry not fully specified) | 7
* GACGCGGCGC (chemistry not fully specified) | 17
* CCACTGCACC (chemistry not fully specified) | 5
* CTTACAAGCA (chemistry not fully specified) | 3
* CTGTACTTGT (chemistry not fully specified) | 1
* ACCTGCATCC (chemistry not fully specified) | 0

Fill in: colorectal tissue transcripts AD2 (SAGE tag count) for GGCTGCCTGC (chemistry not fully specified) = 3

Fill in: colorectal tissue transcripts AD2 (SAGE tag count) for GCGAAACCCT (chemistry not fully specified) = 43

Fill in: colorectal tissue transcripts AD2 (SAGE tag count) for GCTGGCACAT (chemistry not fully specified) = 0

Fill in: colorectal tissue transcripts AD2 (SAGE tag count) for CATAGGTTTA (chemistry not fully specified) = 1

Fill in: colorectal tissue transcripts AD2 (SAGE tag count) for GCCACATACT (chemistry not fully specified) = 0

---

Test system: colorectal tissue transcripts
Assay: SAGE of normal, adenoma and cancer colorectal tissue (transcript tag counts)
Design: species or system human
Conditions: SAGE library NC1
Mark Yes for NC1 (SAGE tag count) under 30, No if at or over.

// known answers, use as guide
* GGCTGGGCCT (chemistry not fully specified) | No
* CTGGATCTGG (chemistry not fully specified; the letters are possibly those of the target site) | Yes
* CCTTCAAATC (chemistry not fully specified) | Yes
* GCCGTGGAGA (chemistry not fully specified) | No
* AGGCCAAGGG (chemistry not fully specified) | Yes
* GCCCAGGTCA (chemistry not fully specified) | No
* ATCGTGGCGG (chemistry not fully specified) | No
* CCTCCAGCTA (chemistry not fully specified) | No
* GCGAAACCCT (chemistry not fully specified) | No
* GATGAATCCG (chemistry not fully specified) | Yes

Strictly below 30: is that where NC1 (SAGE tag count) of GCCATCCTCC (chemistry not fully specified) sits?
Yes

---

Known NC1 (SAGE tag count) of a selection of sequences
Test system: colorectal tissue transcripts
Experiment: SAGE of normal, adenoma and cancer colorectal tissue (transcript tag counts)
Set-up: species or system human
Conditions: normal colorectal tissue library 1
Reply with just the number.

Please review the following examples before continuing.
* GTGGTTCACG (chemistry not fully specified) | 4
* TTCTGGTGCG (chemistry not fully specified) | 8
* GTGTTGGGGG (chemistry not fully specified) | 21
* TCGGAGCTGT (chemistry not fully specified) | 21
* TTAACCCCTC (chemistry not fully specified) | 34

--- query ---
// NC1 (SAGE tag count) value for TCAGCTGCAA (chemistry not fully specified) : 56

---

Test system: colorectal tissue transcripts
Assay: SAGE of normal, adenoma and cancer colorectal tissue (transcript tag counts)
Design: species or system human
Settings: cancer library 2
assay metric: CA2 (SAGE tag count)
Reply with just the number.

Please review the following examples before continuing.
• TTAACCCCTC (chemistry not fully specified) = 5
• TACGGTGTGG (chemistry not fully specified) = 0
• TTTGGTTTCA (chemistry not fully specified) = 0
• TGACTAATTG (chemistry not fully specified) = 3
• TCAGCTGCAA (chemistry not fully specified) = 3
• TTTTCTGCAT (chemistry not fully specified) = 2
• TTCTGTAGCC (chemistry not fully specified) = 2
• TGGCTACTTA (chemistry not fully specified) = 2

// CA2 (SAGE tag count) value for TTGGGGTTTC (chemistry not fully specified) : 50

// CA2 (SAGE tag count) value for TCAGAGCGCT (chemistry not fully specified) : 1

// CA2 (SAGE tag count) value for TTGGACCTGG (chemistry not fully specified) : 16

// CA2 (SAGE tag count) value for GTTTAGAGGG (chemistry not fully specified) : 1

// CA2 (SAGE tag count) value for TCACCGGTCA (chemistry not fully specified) : 6

---

Test system: colorectal tissue transcripts
Assay: SAGE of normal, adenoma and cancer colorectal tissue (transcript tag counts)
Design: species or system human
Conditions: SAGE library CA2
Known CA2 (SAGE tag count) of a selection of sequences

Please review the following examples before continuing.
* GCCATCCTCC (chemistry not fully specified) | 0
* GGCTCGGGAT (chemistry not fully specified) | 5
* CTTACAAGCA (chemistry not fully specified) | 3

Fill in: colorectal tissue transcripts CA2 (SAGE tag count) for GCGCAGAGGT (chemistry not fully specified) = 1

Fill in: colorectal tissue transcripts CA2 (SAGE tag count) for CCGGCTTGAG (chemistry not fully specified) = 0

Fill in: colorectal tissue transcripts CA2 (SAGE tag count) for GCCACATACT (chemistry not fully specified) = 0

Fill in: colorectal tissue transcripts CA2 (SAGE tag count) for CCACTGCACC (chemistry not fully specified) = 14

Fill in: colorectal tissue transcripts CA2 (SAGE tag count) for ATCGTGGCGG (chemistry not fully specified) = 10

Fill in: colorectal tissue transcripts CA2 (SAGE tag count) for CTGTACTTGT (chemistry not fully specified) = 0

Fill in: colorectal tissue transcripts CA2 (SAGE tag count) for CGGGAGTCGG (chemistry not fully specified) = 1

Fill in: colorectal tissue transcripts CA2 (SAGE tag count) for AGCAGGAGCA (chemistry not fully specified) = 6
